# Experimental system: PKBα (Homo sapiens, UniProt P31749)
# Sequence (P31749 118-480 limits assumed): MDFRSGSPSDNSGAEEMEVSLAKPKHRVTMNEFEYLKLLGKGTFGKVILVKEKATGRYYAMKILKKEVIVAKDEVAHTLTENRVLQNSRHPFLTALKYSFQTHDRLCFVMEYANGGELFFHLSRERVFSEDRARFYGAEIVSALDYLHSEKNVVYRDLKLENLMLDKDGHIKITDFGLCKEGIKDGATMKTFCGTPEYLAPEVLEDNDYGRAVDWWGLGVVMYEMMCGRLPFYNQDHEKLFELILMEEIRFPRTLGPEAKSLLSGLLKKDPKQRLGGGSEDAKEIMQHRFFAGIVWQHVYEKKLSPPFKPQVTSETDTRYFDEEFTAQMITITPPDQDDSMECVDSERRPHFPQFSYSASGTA
# Test name: PKB kinase assay (P33-labeled ATP, peptide substrate, filter plate)
# Assay type: biochemical
# Conditions used: PKBα enzyme (full length or kinase domain with pleckstrin domain deleted)
Would you kindly list IC50 for each of these compounds?

Challenge: Form field: reported IC50 of Nc1n[nH]c2ccc(-c3cnc(NC[C@@H](N)Cc4ccc(C(F)(F)F)cc4)s3)cc12 [Example 50]
Response given: 50 to 1000 nM

Challenge: Form field: reported IC50 of N[C@H](CNc1ncc(-c2ccc3[nH]c(=O)oc3c2)s1)Cc1ccc(C(F)(F)F)c(F)c1 [Example 183]
Response given: < 50 nM

Challenge: Form field: reported IC50 of N[C@H](CNc1nc(-c2ccco2)c(-c2ccc3cnccc3c2)s1)Cc1ccc(C(F)(F)F)cc1 [Example 8]
Response given: 50 to 1000 nM

Challenge: Form field: reported IC50 of N[C@H](CNc1ncc(-c2ccc3[nH]c(=O)oc3c2)s1)[C@@H](CO)c1ccc(C(F)(F)F)cc1 [Example 160]
Response given: < 50 nM

Challenge: Form field: reported IC50 of CNCc1nc(NC[C@@H](N)Cc2ccc(C(F)(F)F)cc2)sc1-c1ccc2cnccc2c1 [Example 56]
Response given: 50 to 1000 nM

Challenge: Form field: reported IC50 of N[C@H](CNc1ncc(-c2ccc3cnccc3c2)s1)Cc1ccc(Cl)c(Cl)c1 [Example 132]
Response given: < 50 nM

Challenge: Form field: reported IC50 of N[C@H](CNc1ncc(-c2ccc3c(c2)CC(=O)N3)s1)Cc1ccc(Cl)cc1 [Example 54]
Response given: < 50 nM

Challenge: Form field: reported IC50 of C[C@@H](c1ccccc1)[C@H](N)CNc1ncc(-c2ccc3c(c2)CC(=O)N3)s1 [Example 90]
Response given: 1000 to 10000 nM

---

# Experimental system: PKBα (Homo sapiens, UniProt P31749)
# Test name: PKB kinase assay (P33-labeled ATP, peptide substrate, filter plate)
# Assay type: biochemical
# Conditions used: PKBα enzyme (full length or kinase domain with pleckstrin domain deleted)
Would you kindly list IC50 for each of these molecules?

Challenge: API: value(readout=IC50, system=PKBα (Homo sapiens, UniProt P31749)) for record N[C@H](CNc1ncc(-c2cc3oc(=O)[nH]c3cc2F)s1)Cc1ccc(C(F)(F)F)cc1
Response given: < 50 nM

Challenge: API: value(readout=IC50, system=PKBα (Homo sapiens, UniProt P31749)) for record Cc1nc(NC[C@@H](N)Cc2ccccc2)sc1-c1ccc2[nH]nc(C)c2c1
Response given: 1000 to 10000 nM

Challenge: API: value(readout=IC50, system=PKBα (Homo sapiens, UniProt P31749)) for record COc1cc(C[C@H](N)CNc2ncc(-c3ccc4c(c3)CC(=O)N4)s2)ccc1C(F)(F)F
Response given: < 50 nM

Challenge: API: value(readout=IC50, system=PKBα (Homo sapiens, UniProt P31749)) for record CC(O)C#Cc1nc(NC[C@@H](N)Cc2ccc(C(F)(F)F)cc2)sc1-c1ccc2c(c1)CC(=O)N2 (some centres unmarked)
Response given: < 50 nM

Challenge: API: value(readout=IC50, system=PKBα (Homo sapiens, UniProt P31749)) for record N[C@H](CNc1ncc(-c2ccc3[nH]c(=O)oc3c2)s1)Cc1ccc(C(F)(F)F)cc1
Response given: < 50 nM

Challenge: API: value(readout=IC50, system=PKBα (Homo sapiens, UniProt P31749)) for record N[C@@H](CNc1ncc(-c2ccc3c(c2)CC(=O)N3)s1)Cc1ccc(C(F)(F)F)cc1
Response given: 50 to 1000 nM

Challenge: API: value(readout=IC50, system=PKBα (Homo sapiens, UniProt P31749)) for record N[C@H](CNc1nc(-c2cccnc2)c(-c2ccc3cnccc3c2)s1)Cc1ccc(C(F)(F)F)cc1
Response given: 50 to 1000 nM

Challenge: API: value(readout=IC50, system=PKBα (Homo sapiens, UniProt P31749)) for record NC(CNc1ncc(-c2ccc3cnccc3c2)s1)Cc1ccc(C(F)(F)F)cc1F (centres unmarked)
Response given: < 50 nM

Challenge: API: value(readout=IC50, system=PKBα (Homo sapiens, UniProt P31749)) for record N[C@H](CNc1ncc(-c2cc(F)c3c(c2)CC(=O)N3)s1)Cc1ccc(C(F)(F)F)cc1
Response given: < 50 nM

Challenge: API: value(readout=IC50, system=PKBα (Homo sapiens, UniProt P31749)) for record C[C@@H](c1ccc(C(F)(F)F)cc1)[C@H](N)CNc1ncc(-c2ccc3cnccc3c2)s1
Response given: < 50 nM

Challenge: API: value(readout=IC50, system=PKBα (Homo sapiens, UniProt P31749)) for record Cc1n[nH]c2ccc(-c3sc(NC[C@@H](N)Cc4ccc(C(F)(F)F)cc4)nc3C#CCO)cc12
Response given: < 50 nM

Challenge: API: value(readout=IC50, system=PKBα (Homo sapiens, UniProt P31749)) for record N[C@H](CNc1ncc(-c2ccc3cnccc3c2)s1)Cc1ccc(Cl)s1
Response given: < 50 nM

Challenge: API: value(readout=IC50, system=PKBα (Homo sapiens, UniProt P31749)) for record CN(C)Cc1nc(NC[C@@H](N)Cc2ccc(C(F)(F)F)cc2)sc1-c1ccc2cnccc2c1
Response given: 50 to 1000 nM

Challenge: API: value(readout=IC50, system=PKBα (Homo sapiens, UniProt P31749)) for record N[C@H](CNc1nc(CO)c(-c2ccc3c(c2)CC(=O)N3)s1)Cc1ccc(C(F)(F)F)cc1
Response given: < 50 nM

Challenge: API: value(readout=IC50, system=PKBα (Homo sapiens, UniProt P31749)) for record N[C@H](CNc1ncc(-c2nc3ccncc3s2)s1)Cc1ccc(Cl)c(Cl)c1
Response given: 50 to 1000 nM

Challenge: API: value(readout=IC50, system=PKBα (Homo sapiens, UniProt P31749)) for record COc1ccc(CC(N)CNc2ncc(-c3ccc4c(c3)CC(=O)N4)s2)cc1F (centres unmarked)
Response given: 50 to 1000 nM

Challenge: API: value(readout=IC50, system=PKBα (Homo sapiens, UniProt P31749)) for record NC(CNc1ncc(-c2ccc3cnccc3c2)s1)Cc1ccc(O)c(F)c1 (centres unmarked)
Response given: < 50 nM

Challenge: API: value(readout=IC50, system=PKBα (Homo sapiens, UniProt P31749)) for record N[C@H](CNc1ncc(-c2ccc3c(c2)CNC3=O)s1)Cc1ccc(Cl)s1
Response given: 1000 to 10000 nM

Challenge: API: value(readout=IC50, system=PKBα (Homo sapiens, UniProt P31749)) for record N[C@H](CNc1nc(C#CCO)c(-c2ccc3c(c2)CC(=O)N3)s1)Cc1ccc(C(F)(F)F)cc1
Response given: < 50 nM

Challenge: API: value(readout=IC50, system=PKBα (Homo sapiens, UniProt P31749)) for record N[C@H](CNc1nc(-c2ccccc2F)c(-c2ccc3c(c2)CC(=O)N3)s1)Cc1ccc(C(F)(F)F)cc1
Response given: 1000 to 10000 nM

Challenge: API: value(readout=IC50, system=PKBα (Homo sapiens, UniProt P31749)) for record C[C@@H](c1ccc(C(F)(F)F)cc1)[C@H](N)CNc1ncc(-c2ccc3[nH]c(=O)oc3c2)s1
Response given: < 50 nM

Challenge: API: value(readout=IC50, system=PKBα (Homo sapiens, UniProt P31749)) for record C[C@@H](Nc1ncc(-c2ccc3[nH]c(=O)oc3c2)s1)[C@@H](N)Cc1ccc(C(F)(F)F)cc1
Response given: 50 to 1000 nM

Challenge: API: value(readout=IC50, system=PKBα (Homo sapiens, UniProt P31749)) for record COc1cc(C[C@H](N)CNc2ncc(-c3ccc4[nH]c(=O)n(C)c4c3)s2)cnc1C(F)(F)F
Response given: < 50 nM

Challenge: API: value(readout=IC50, system=PKBα (Homo sapiens, UniProt P31749)) for record N[C@H](CNc1ncc(-c2ccc3cnccc3c2)s1)Cc1ccc(C(F)(F)F)nc1
Response given: < 50 nM

Challenge: API: value(readout=IC50, system=PKBα (Homo sapiens, UniProt P31749)) for record N[C@H](CNc1ncc(-c2cc3oc(=O)[nH]c3cc2F)s1)Cc1ccc(C(F)(F)F)nc1
Response given: 50 to 1000 nM

Challenge: API: value(readout=IC50, system=PKBα (Homo sapiens, UniProt P31749)) for record N[C@H](CNc1ncc(-c2ccc3c(c2)CC(=O)N3)s1)Cc1ccc(OCCCCl)cc1
Response given: 1000 to 10000 nM

Challenge: API: value(readout=IC50, system=PKBα (Homo sapiens, UniProt P31749)) for record N[C@@H](Cc1cccc(C(F)(F)F)c1)CN(Cc1ccccc1)c1ncc(-c2nc3ccncc3s2)s1
Response given: 1000 to 10000 nM

Challenge: API: value(readout=IC50, system=PKBα (Homo sapiens, UniProt P31749)) for record COc1ccc(CC(N)CNc2ncc(-c3ccc4[nH]c(=O)oc4c3)s2)cc1F (centres unmarked)
Response given: 50 to 1000 nM

Challenge: API: value(readout=IC50, system=PKBα (Homo sapiens, UniProt P31749)) for record COc1cc(C[C@H](N)CNc2ncc(-c3ccc4c(c3)CC(=O)N4)s2)cnc1C(F)(F)F
Response given: 50 to 1000 nM

Challenge: API: value(readout=IC50, system=PKBα (Homo sapiens, UniProt P31749)) for record COCc1nc(N(C[C@@H](N)Cc2ccc(Cl)cc2)C(C)=O)sc1-c1nc2ccncc2s1
Response given: 50 to 1000 nM

Challenge: API: value(readout=IC50, system=PKBα (Homo sapiens, UniProt P31749)) for record C[C@@H](c1ccccc1)[C@H](N)CNc1ncc(-c2ccc3cnccc3c2)s1
Response given: 50 to 1000 nM

Challenge: API: value(readout=IC50, system=PKBα (Homo sapiens, UniProt P31749)) for record N[C@@H](CNc1ncc(-c2ccc3[nH]c(=O)oc3c2)s1)Cc1ccc(C(F)(F)F)c(F)c1
Response given: 50 to 1000 nM
